Reported values of phosphorylation enrichment for individual entries
- Test system: c-Src
- Test: phosphorylation enrichment, bacterial display (enrichment ratio); higher = better substrate or ligand; peptides without Tyr show the background;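 note: 11-residue human phosphosite peptides and single-mutation variants displayed on the E. coli surface, counted by deep sequencing, each peptide's frequency after selection divided by its frequency in the unselected input library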;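 note: frequency after pTyr selection over input frequency; kinase dosed for 20-30% of maximal phosphorylation in three min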
Form field (numeric): enter value without unit.

{"columns": ["Seq String", "phosphorylation enrichment"],
 "data": [
  ["NDKLRYEVSSP [CDH13_Y66]", 0.438],
  ["RRERDYTNLPS [CSF1R_Y923]", 0.668]
]}

Please examine the following record next.
The reported value for HSVVQYVGGVM [FGGY_Y136_L134V] in terms of phosphorylation enrichment is 0.491

###

Reported values of phosphorylation enrichment for individual entries
- Tested on: c-Abl (mouse)
- Test: phosphorylation enrichment, bacterial display (enrichment ratio); higher = better substrate or ligand; peptides without Tyr show the background

{"columns": ["Seq String", "Result"],
 "data": [
  ["LAETSYVKVLE [MAGEA1_Y276]", 0.616],
  ["YTGSTYRVGDT [FN1_Y106_N104S]", 0.595],
  ["RLLVVYPWTER [HBB_Y36_Q40E]", 0.612],
  ["FSPGSYERETF [NF1_Y2192]", 0.702],
  ["STDDGYIDLQF [TMEM230_Y29]", 0.695],
  ["SVTGTYSPALN [TP53_Y126_C124G]", 0.717]
]}

Hey, c-Abl (mouse) data for NTCNRYCRDEI [ITGB3_Y660] : phosphorylation enrichment came out at 0.596
